assay: Drug uptake in C57BL/6 mouse brain at 3 mg/kg, iv measured at 5 mins; assay type: ADME, organism-based; settings: read-out: Drug uptake
Entries and their concentration at 5 min
READOUT NAME: concentration at 5 min (µg/mL)

- COMPOUND: "CNC(=O)c1csc2c(C(F)(F)F)cc(N3CCC(OC(=O)NC(C)C)CC3)nc12"
  READOUT NAME: "concentration at 5 min"
  VALUE REPORTED: 2.7
- COMPOUND: "CNC(=O)c1csc2c(C(F)(F)F)cc(N3CCN(C(=O)COC(C)C)CC3)nc12"
  READOUT NAME: "concentration at 5 min"
  VALUE REPORTED: 0.228
- COMPOUND: "CNC(=O)c1csc2c(C(F)(F)F)cc(N3CCC(OC(=O)NCCOC(F)(F)F)CC3)nc12"
  READOUT NAME: "concentration at 5 min"
  VALUE REPORTED: 1.64
- COMPOUND: "CNC(=O)c1csc2c(C(F)(F)F)cc(N3CCN(CC(O)COC(C)(C)C)CC3)nc12 (centres undefined)"
  READOUT NAME: "concentration at 5 min"
  VALUE REPORTED: 1.7

====

Molecular target: 2-hydroxyacylsphingosine 1-beta-galactosyltransferase (Homo sapiens)
Sequence (Q16880 whole entry): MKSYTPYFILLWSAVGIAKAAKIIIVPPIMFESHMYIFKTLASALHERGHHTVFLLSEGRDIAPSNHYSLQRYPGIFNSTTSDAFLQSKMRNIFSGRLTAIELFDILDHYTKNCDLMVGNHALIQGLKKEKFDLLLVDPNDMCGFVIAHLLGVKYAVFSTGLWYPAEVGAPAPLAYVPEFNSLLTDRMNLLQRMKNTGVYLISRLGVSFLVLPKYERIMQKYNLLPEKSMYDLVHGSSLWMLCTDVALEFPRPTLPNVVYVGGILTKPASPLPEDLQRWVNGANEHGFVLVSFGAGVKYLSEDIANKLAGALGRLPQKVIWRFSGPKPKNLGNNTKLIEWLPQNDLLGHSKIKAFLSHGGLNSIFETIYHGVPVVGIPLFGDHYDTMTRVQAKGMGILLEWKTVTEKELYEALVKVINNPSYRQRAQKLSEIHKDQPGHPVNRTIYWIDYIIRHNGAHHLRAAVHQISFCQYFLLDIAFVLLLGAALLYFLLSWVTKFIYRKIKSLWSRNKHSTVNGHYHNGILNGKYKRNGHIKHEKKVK
Test: Inhibition of UGT8 in human OE19 cells assessed as redcution in GalCer accumulation measured after 72 hrs by LC-MS/MS analysis
Type: cell-based
pIC50: −log10 of the molar value.
READOUT NAME: pIC50

- SMILES STRUCTURE: "CNC(=O)c1csc2c(C(F)(F)F)cc(N3CCC(OC(=O)N4CC(OC(F)(F)F)C4)CC3)nc12"
  VALUE REPORTED: 8.54
- SMILES STRUCTURE: "CNC(=O)c1csc2c(C(F)(F)F)cc(N3CCC(OC(=O)N[C@@H](C)COC(F)(F)F)CC3)nc12"
  VALUE REPORTED: 9.70
- SMILES STRUCTURE: "CCC(=O)c1csc2c(C(F)(F)F)cc(N3CCN(CC(=O)NC(C)C)CC3)nc12"
  VALUE REPORTED: 6.92
- SMILES STRUCTURE: "CNC(=O)c1csc2c(C(F)(F)F)cc(N3CCC(OC(=O)NC(C)C)CC3)nc12"
  VALUE REPORTED: 8.70
- SMILES STRUCTURE: "CNC(=O)c1csc2c(C(F)(F)F)cc(N3CC(NC(=O)OCC4CC4)C3)nc12"
  VALUE REPORTED: 7.37
- SMILES STRUCTURE: "CC(C)NC(=O)CN1CCN(c2cc(C(F)(F)F)c3scc(C(=O)N4CCC4)c3n2)CC1"
  VALUE REPORTED: 6.49
- SMILES STRUCTURE: "CNC(=O)c1csc2c(C(F)(F)F)cc(N3CCC(OC(=O)NCCOC(F)(F)F)CC3)nc12"
  VALUE REPORTED: 9.22
- SMILES STRUCTURE: "CC[C@H](C)NC(=O)OC1CCN(c2cc(C(F)(F)F)c3scc(C(=O)NC)c3n2)CC1"
  VALUE REPORTED: 9.40

====

assay: Clearance in Sprague-Dawley rat at 1 mg/kg, iv; assay type: ADME, organism-based; details: in vivo
READOUT NAME: clearance

- SMILES STRUCTURE: "CNC(=O)c1csc2c(C(F)(F)F)cc(N3CCC(OC(=O)N[C@@H](C)COC(F)(F)F)CC3)nc12"
  VALUE REPORTED: "6.52 mL/min/kg"

====

experiment: Apparent permeability of the compound at pH 6.5 to 7.4 by PAMPA; format: ADME
Examples of compounds with documented Papp follow.
READOUT NAME: Papp

- COMPOUND: "CNC(=O)c1csc2c(C(F)(F)F)cc(N3CCN(C(C)C(=O)NC4CC4)CC3)nc12 (stereo not given)"
  VALUE REPORTED: "75 ×10⁻⁶ cm/s"
- COMPOUND: "CNC(=O)c1csc2c(C(F)(F)F)cc(N3CCC(OC(=O)NC(C)C)CC3)nc12"
  VALUE REPORTED: "> 80 ×10⁻⁶ cm/s"
- COMPOUND: "CNC(=O)c1csc2c(C(F)(F)F)cc(N3CCN(CCOC(C)C)CC3)nc12"
  VALUE REPORTED: "> 80 ×10⁻⁶ cm/s"
- COMPOUND: "CCC(=O)c1csc2c(C(F)(F)F)cc(N3CCN(CC(=O)NC(C)C)CC3)nc12"
  VALUE REPORTED: "> 80 ×10⁻⁶ cm/s"
- COMPOUND: "CNC(=O)c1csc2c(C(F)(F)F)cc(N3CCN(C(=O)COC(C)C)CC3)nc12"
  VALUE REPORTED: "69 ×10⁻⁶ cm/s"

====

experiment: Half life in Beagle dog at 1 mg/kg, iv; format: ADME, organism-based, Canis lupus familiaris; details: in vivo
READOUT NAME: half-life (h)

- SMILES STRUCTURE: "CNC(=O)c1csc2c(C(F)(F)F)cc(N3CCC(OC(=O)N[C@@H](C)COC(F)(F)F)CC3)nc12"
  VALUE REPORTED: 13.6

====

Listing of entries alongside the reported logD.
assay: Distribution coefficient, log D of the compound; type: physicochemical; conditions: octanol/water

- MOLECULE: "CNC(=O)c1csc2c(C(F)(F)F)cc(N3CCC(OC(=O)NCC4CC4)CC3)nc12"
  logD: 4.2
- MOLECULE: "CNC(=O)c1csc2c(C(F)(F)F)cc(N3CCN(CC(O)COC(C)(C)C)CC3)nc12 (centres undefined)"
  logD: 3.7
- MOLECULE: "CNC(=O)c1csc2c(C(F)(F)F)cc(N3CCN(C(=O)COC(C)C)CC3)nc12"
  logD: 3.1
- MOLECULE: "CNC(=O)c1csc2c(C(F)(F)F)cc(N3CCC(OC(=O)NCCOC(F)(F)F)CC3)nc12"
  logD: 4.7
- MOLECULE: "CNC(=O)c1csc2c(C(F)(F)F)cc(N3CCN(CCOC(C)C)CC3)nc12"
  logD: 3.6
- MOLECULE: "CNC(=O)c1csc2c(C(F)(F)F)cc(N3CCN(C(C)C(=O)NC4CC4)CC3)nc12 (centres undefined)"
  logD: 3.3
- MOLECULE: "CC[C@H](C)NC(=O)OC1CCN(c2cc(C(F)(F)F)c3scc(C(=O)NC)c3n2)CC1"
  logD: 4.56
- MOLECULE: "CNC(=O)c1csc2c(C(F)(F)F)cc(N3CCC(OC(=O)N[C@@H](C)C4CC4)CC3)nc12"
  logD: 4.29
- MOLECULE: "CNC(=O)c1csc2c(C(F)(F)F)cc(N3CCC(OC(=O)NC(C)C)CC3)nc12"
  logD: 4.35

====

Examples of compounds with documented Kp at 1 h follow.
assay: Ratio of drug concentration in brain to plasma in C57BL/6 mouse measured at 1 hr; format: ADME, organism-based; details: read-out: BPR

- COMPOUND: "CNC(=O)c1csc2c(C(F)(F)F)cc(N3CCN(CC(O)COC(C)(C)C)CC3)nc12 (stereo not drawn)"
  Kp at 1 h: 0.35
- COMPOUND: "CC[C@H](C)NC(=O)OC1CCN(c2cc(C(F)(F)F)c3scc(C(=O)NC)c3n2)CC1"
  Kp at 1 h: 0.76
- COMPOUND: "CNC(=O)c1csc2c(C(F)(F)F)cc(N3CCN(C(=O)COC(C)C)CC3)nc12"
  Kp at 1 h: 0.06

====

Biological target: 2-hydroxyacylsphingosine 1-beta-galactosyltransferase (Homo sapiens)
Sequence (Q16880 whole entry): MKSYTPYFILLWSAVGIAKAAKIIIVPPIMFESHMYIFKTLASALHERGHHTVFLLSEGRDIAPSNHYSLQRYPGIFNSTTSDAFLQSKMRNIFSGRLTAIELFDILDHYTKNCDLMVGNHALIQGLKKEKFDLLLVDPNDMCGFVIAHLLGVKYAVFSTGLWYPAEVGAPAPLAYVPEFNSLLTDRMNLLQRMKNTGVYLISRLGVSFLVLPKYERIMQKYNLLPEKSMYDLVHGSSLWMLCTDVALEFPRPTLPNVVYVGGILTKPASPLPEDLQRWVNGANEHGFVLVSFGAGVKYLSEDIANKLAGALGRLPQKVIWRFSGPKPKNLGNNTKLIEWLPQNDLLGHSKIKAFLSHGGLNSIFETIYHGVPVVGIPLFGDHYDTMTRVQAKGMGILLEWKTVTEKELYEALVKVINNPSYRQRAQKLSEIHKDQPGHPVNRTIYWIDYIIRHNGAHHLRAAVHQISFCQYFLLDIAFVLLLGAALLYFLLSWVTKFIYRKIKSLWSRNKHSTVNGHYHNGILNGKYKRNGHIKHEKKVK
Assay: Inhibition of UGT8 in human OE19 cells assessed as redcution in SFT accumulation measured after 72 hrs by LC-MS/MS analysis
Assay type: cell-based
In plain terms, low IC50, meaning strictly below 0.2 µM, gives Fulfilled, and everything else gives Not fulfilled.

- MOLECULE: "CNC(=O)c1csc2c(C(F)(F)F)cc(N3CCN(CC(=O)C(C)(C)C)CC3)nc12"
  LABEL VALUE: "Not fulfilled"
- MOLECULE: "CNC(=O)c1csc2c(C(F)(F)F)cc(N3CCC(OC(=O)NCCN4CCCC4)CC3)nc12"
  LABEL VALUE: "Not fulfilled"
- MOLECULE: "CCC(=O)c1csc2c(C(F)(F)F)cc(N3CCN(CC(=O)NC(C)C)CC3)nc12"
  LABEL VALUE: "Fulfilled"
- MOLECULE: "CC[C@H](C)NC(=O)OC1CCN(c2cc(C(F)(F)F)c3scc(C(=O)NC)c3n2)CC1"
  LABEL VALUE: "Fulfilled"
- MOLECULE: "CNC(=O)c1csc2c(C(F)(F)F)cc(N3CCC(OC(=O)NCC4CC4)C3)nc12 (configuration not stated)"
  LABEL VALUE: "Not fulfilled"
- MOLECULE: "CNC(=O)c1csc2c(C(F)(F)F)cc(N3CCN(CC(O)COC(C)(C)C)CC3)nc12 (configuration not stated)"
  LABEL VALUE: "Fulfilled"
- MOLECULE: "CNC(=O)c1csc2c(C(F)(F)F)cc(N3CCN(CCOC(C)C)CC3)nc12"
  LABEL VALUE: "Not fulfilled"
- MOLECULE: "CNC(=O)c1csc2c(C(F)(F)F)cc(N3CCC(OC(=O)N[C@@H](C)COC(F)(F)F)CC3)nc12"
  LABEL VALUE: "Fulfilled"
- MOLECULE: "CNC(=O)c1csc2c(C(F)(F)F)cc(N3CCC(OC(=O)NCC4CC4)CC3)nc12"
  LABEL VALUE: "Fulfilled"
- MOLECULE: "CNC(=O)c1csc2c(C(F)(F)F)cc(N3CCC(OC(=O)N[C@@H](C)C4CC4)CC3)nc12"
  LABEL VALUE: "Fulfilled"
- MOLECULE: "CNC(=O)c1csc2c(C(F)(F)F)cc(N3CCN(CC(=O)NC(C)C)CC3)nc12"
  LABEL VALUE: "Fulfilled"

Where these numbers come from: ChEMBL document CHEMBL4725449
